test system: MDA-MB-435; assay: NCI tumour cell line growth inhibition, 48 h
Calls of active or inactive are those of the source. Cut-off read from the data, not from the text of the source: active = GI50 up to about 1.1 µM and inactive = higher.
experimental-endpoint: GI50

Incoming: Record lookup: for MDA-MB-435, what GI50 belongs to O=c1[nH]c(=O)n(C2CC(O)C(CO)O2)c2nc3ccc4ccccc4c3nc12 (stereo not given) ?
Outgoing: > 100 µM (inactive)

Incoming: Record lookup: for MDA-MB-435, what GI50 belongs to COC(=O)c1cc2c3c(c(C(C)=O)c(OC)c2[nH]1)NCC3 ?
Outgoing: > 50 µM (inactive)

Incoming: Record lookup: for MDA-MB-435, what GI50 belongs to CCC1(CCSC(=N)N)C(=O)NC(=O)NC1=O ?
Outgoing: > 100 µM (inactive)

Incoming: Record lookup: for MDA-MB-435, what GI50 belongs to CCOC(=O)C1(Cc2ccccc2)C=CN(C(=O)c2ccccc2)C=C1 ?
Outgoing: 29.2 µM (inactive)

Incoming: Record lookup: for MDA-MB-435, what GI50 belongs to CCCCCOC(=O)C(=O)Nc1[nH]nnc1C(N)=O ?
Outgoing: > 100 µM (inactive)

Incoming: Record lookup: for MDA-MB-435, what GI50 belongs to C=CCOC(C)(C)C1=CCC(C)CC1 (stereo not given) ?
Outgoing: > 100 µM (inactive)

Incoming: Record lookup: for MDA-MB-435, what GI50 belongs to Nc1nc2c(ncn2C2C=CC(COS(N)(=O)=O)C2)c(=O)[nH]1 (stereo not given) ?
Outgoing: > 100 µM (inactive)

Incoming: Record lookup: for MDA-MB-435, what GI50 belongs to O=S(=O)(CCCCl)SCCCCl ?
Outgoing: 25.8 µM (inactive)

Incoming: Record lookup: for MDA-MB-435, what GI50 belongs to COc1cc(C2c3cc4c(cc3OC(N3CCOCC3)C2C)OCO4)ccc1O (stereo not given) ?
Outgoing: 2.81 µM (inactive)

Incoming: Record lookup: for MDA-MB-435, what GI50 belongs to CC(C)=CC(C)C(C(O)CCC1(c2ccoc2)OCCO1)S(=O)(=O)c1ccccc1 (stereo not given) ?
Outgoing: > 100 µM (inactive)
